Tested on: 855422-203-R-J1-PDC complex spheroid viability;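 further: spheroids exposed to compounds for seven days before readout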
Assay: Anticancer human tumor 855422-203-R-J1-PDC patient-derived bladder carcinoma cell line growth inhibition [POLQ]
Conditions: second compound 0.1 µM; first compound 3.16 µM; hits give low values
test.readout: viability, T/C (%)
Numbers only here, please. The scale is %.

COc1cccc2c1C(=O)c1c(O)c3c(c(O)c1C2=O)CC(O)(C(=O)CO)CC3OC1CC(N)C(O)C(C)O1 (stereo not drawn) + Nc1ccc(C#CCN(C(=O)Cc2ncc(C(F)(F)F)cc2C(F)(F)F)c2ccc(F)cc2)nn1 | 1.37
CC(C)n1c(=O)n(C)c2cnc3cc(F)c(-c4ccc(OCCCN5CCCCC5)nc4)cc3c21 + Nc1ccc(C#CCN(C(=O)Cc2ncc(C(F)(F)F)cc2C(F)(F)F)c2ccc(F)cc2)nn1 | 100

Then there is this compound:
Query: I'd like to know its viability, T/C. The compound in question is O=C(Nc1ccc(O)c(NS(=O)(=O)c2ccc(F)cc2)c1)c1ccc(-c2ccccc2)cc1 + COC1C(OC(N)=O)C(O)C(Oc2ccc3c(O)c(NC(=O)c4ccc(O)c(CC=C(C)C)c4)c(=O)oc3c2C)OC1(C)C
Response: 103
